EXPERIMENT_NOTES: Rat pharmacokinetics
Type: in vivo
SETTINGS: plasma, iv, 3 mg/kg
RESULT_TYPE: clearance (mL/min/kg)
State the answer as a number, implicitly in mL/min/kg.

(Q) Value lookup for clearance; key = CC(=O)NC1[C@H](Oc2cccc(C(F)(F)F)c2-c2cccc(NS(C)(=O)=O)c2)O[C@H](CO)[C@H](O)[C@@H]1O (stereo in doubt)
(A) 57

###

TARGET: FmlH (Escherichia coli, UniProt Q1RBS0)
Assay type: binding, Escherichia coli (UPEC, CFT073)
SETTINGS: IC50 expressed as a concentration, converted from IC50 of 120 nM
RESULT_TYPE: IC50 (nM)
Quick note: give the figure in nM, leave out the unit.

(Q) For the molecule shown here, CC(=O)N[C@H]1[C@H](Oc2cccc(C)c2-c2cccc(NS(C)(=O)=O)c2)O[C@H](CO)[C@H](O)[C@@H]1O , give the reported IC50.
(A) 120

Each recorded value in this set is attributed to paper PMC6467771.
